Parameter: Fold over parental 293T. Scope: all listed entries.
target: T1, cyno IL-12RB1 overexpressed on 293T cells (Example 2) (cyno, UniProt A0A2K5VWV1 24-662); assay: FACS, hybridoma supernatant, 293T
T1 construct: whole, on cells
Record the value in fold, omitting the unit from your answer.

>>> result("85801_10K15 (antibody, V domains shown, also called 85801_10K15A) VH: QITLKESGPTLVKPTQTLTLTCTFFGFSLNTGGVGVGWIRQPPGKALEWLTLIYWNDDKRYSPSLKSRLTITKDTSKNQVVLTMTNMDPVDTATYYCAHTLRWYHGFDIWGQGTMVTVSS VL: QTVVTQEPSFSVSPGGTVTLTCGLTSGSVSTSYYPSWYQQTPGQAPRTLIYSTYTRSSGVPDRFSGSILGNKAALTITGAQADDESDYYCVLYMGSGIWVFGGGTKLTVL")
21

# evaluate next
Input 85801_02N03 (antibody, V domains shown, also called 85801_02N03A) VH: QVHLVQSGAEVKKPGASVKVSCEASGYTFTDYYIHWLRQAPGQGLEWMGWINPNSGGTHYAQKFQGRVTMTRDTSISTAYMELSRLSSDDTAVYYCAREGGWNYFSGMDVWGQGTTVTVSS VL: DIQLTQSPSFLSASVGDRVTITCRASQGISSYLAWYQQQPGKPPKLLIYAASTLHSGVPSRFSGSGSGTEFTLTISSLQPEDFATYYCQQLNRYPYTCGQGTKLEIK . Output Fold over parental 293T: 85
